System: Nonstructural protein 5A (Hepatitis C virus), Q5L478 [UNDEFINED MUTATION]
protocol description: Inhibition of NS5A L31V mutant in HCV genotype 1a assessed as reduction in replicon RNA level after 3 days by cell based RT-PCR method
assay setup: Hepatitis C virus subtype 1a
Overview of recorded EC90 for various compounds
State just the number; it will be interpreted in nM.

Measured EC90 of COC(=O)N[C@H](C(=O)N1C(C)CC[C@H]1c1ncc(-c2ccc3c(c2)OC(c2ccccc2)n2c-3cc3cc(-c4cnc([C@@H]5CCC(C)N5C(=O)[C@@H](NC(=O)OC)C(C)C)[nH]4)ccc32)[nH]1)C(C)C (single isomer, unassigned; diastereomer B) : 5.74

Reported EC90 of COC(=O)N[C@H](C(=O)N1CCC[C@H]1c1ncc(-c2cc(F)c3c(c2)OC(c2cccc(OC)c2)n2c-3cc3cc(-c4cnc([C@@H]5C[C@@H](F)CN5C(=O)[C@@H](NC(=O)OC)C(C)C)[nH]4)ccc32)[nH]1)C(C)C (stereo partly drawn) : 0.29
